- ASSAY_INFO: ATG_CRE_CIS: Attagene CIS-FACTORIAL HepG2 Assay for human cAMP Responsive Element (CRE) binding protein 3 (AID 2282926)
- MEASUREMENT_PARAMETERS: HepG2 CRE cis-reporter, Attagene multiplexed mRNA; actives raise or lower the signal
Activity calls are given as the source filed them. How the source made its calls: active means hit-call score of the fitted dose curve at least 0.9, where 1 is the maximum; inactive means score below 0.9.
QUANTITY_MEASURED: AC50

Cc1cn([C@H]2C[C@H](N=[N+]=[N-])[C@@H](CO)O2)c(=O)[nH]c1=O : inactive
CCN(Cc1cccnc1)C(=O)c1cccc(Cl)c1[C@]1(C)C(=O)N(Cc2ccc(OC)cc2OC)c2ccc(Cl)cc21 : 10.8 µM (active)
COc1ccc2cc(S(=O)(=O)N[C@H](CC(=O)N[C@H](Cc3ccc(CN4[C@H](C)CCC[C@@H]4C)cc3)C(=O)N(C)C(C)C)c3ccc4c(c3)OCO4)ccc2c1 : 15.4 µM (active)
CCN(CC)C(=O)c1cc(S(=O)(=O)Cc2ccccc2)c(N2CCC(c3ccccc3)CC2)cc1N(CC)CCN(C)C : inactive

###

- Read-out: Cytochrome P450 3A7 (Homo sapiens)
- ASSAY_INFO: LTEA_HepaRG_CYP3A7: Life Technologies and Expression Analysis (LTEA) Assay for CYP3A7 using HepaRG (AID 2283492)
- MEASUREMENT_PARAMETERS: mRNA level, 48 h; actives raise or lower the signal
Active and inactive are the calls of the source. The calls were made as follows: active = hit-call score of the fitted dose curve at least 0.9, where 1 is the maximum; inactive = score below 0.9.
Response enum: 1 for active, -1 for inactive

Look over these answered cases.
CC/C(=C(/CC)c1ccc(O)cc1)c1ccc(O)cc1 : -1
Cc1oc2c(NC(=O)c3c(Cl)cccc3Cl)cccc2c1C(C)(C)O : 1
CCCCOC(=O)c1ccc(O)cc1 : -1
CCN(CC)C(=O)c1cc(S(=O)(=O)Cc2ccccc2)c(N2CCC(c3ccccc3)CC2)cc1N(CC)CCN(C)C : 1
CCN(Cc1cccnc1)C(=O)c1cccc(Cl)c1[C@]1(C)C(=O)N(Cc2ccc(OC)cc2OC)c2ccc(Cl)cc21 : 1

Problem: Write down the call the test reported for this compound. Item: CN(C[C@@H](CC[N+]12CCC(C3CCCCC3)(CC1)CC2)c1ccc(Cl)c(Cl)c1)C(=O)c1cc(C(F)(F)F)cc(C(F)(F)F)c1
Result: 1

Problem: Field: outcome | Entry: CC[C@H](NC(=O)c1cc(F)ccc1NS(=O)(=O)c1cccc2cccnc12)c1ccccc1
Result: -1

Problem: Returns: the outcome recorded for CCCCCCCCCCCO in this assay.
Result: -1

Problem: Hey, what did the test say about CCCOC(=O)c1cc(O)c(O)c(O)c1 ?
Result: -1

Problem: // outcome(item) with item = Cc1c2ccccc2c(C)c2c1ccc1ccccc12
Result: 1

Problem: What was the test verdict on Cc1cn([C@H]2C[C@H](N=[N+]=[N-])[C@@H](CO)O2)c(=O)[nH]c1=O ?
Result: -1

Problem: Per the assay record, what outcome was assigned to OC12N=C(c3ccccc3)SC1Cc1cc(Cl)ccc12 (stereo unspecified) ?
Result: 1

Problem: Dear colleague, could you share the recorded outcome for O=c1c(-c2ccc(O)cc2)coc2cc(O)cc(O)c12 when you have a moment?
Result: -1

Problem: Returns: the outcome recorded for O=C(O)Cc1cc(I)c(Oc2ccc(O)c(I)c2)c(I)c1 in this assay.
Result: 1

Problem: Give the logged outcome of this assay for the following compound: Clc1cc(Cl)c2c(c1)N=C1CCCCCN1C2
Result: 1

Problem: # fetch the recorded call for Cc1ccc2oc(CN(Cc3ccccc3)C(=O)Nc3c(F)cc(F)cc3F)c(-c3ccc(Cl)cc3)c2c1 here
Result: 1

Problem: Per the records of this test, what outcome belongs to CC1=CC(=O)/C(=C(/C)O)C(=O)O1 ?
Result: -1

Problem: Assay outcome for c1ccc(C[n+]2cccc3ccccc32)cc1 : what was it?
Result: 1

Problem: // param item: Cc1cc(F)ccc1-c1cc(N2CC[C@@H](O)[C@H]2CO)ncc1N(C)C(=O)C(C)(C)c1cc(C(F)(F)F)cc(C(F)(F)F)c1 ; yields the recorded call
Result: -1

Problem: What did this assay record as the result for CC[C@@H]1C[C@H](N(Cc2cc(C(F)(F)F)cc(C(F)(F)F)c2)C(C)=O)c2cc(C(F)(F)F)ccc2N1C(=O)OC(C)C ?
Result: 1

Problem: # lookup: test call for Clc1ccccc1C(c1ccccc1)(c1ccccc1)n1ccnc1
Result: -1
